- procedure text: Toxicity of i.v. doses in mice
- run parameters: mouse, in vivo
quantity kind: MTD

In [3]: df
Out[3]:
                                   compound  experimental_value
0  O=C1[O][Pt]2([NH]C3CCCCC3[NH2+]2)[O]C1=O (stereo not shown)             4 mg/kg
